Entry source: ChEMBL document CHEMBL4725326

Each item that follows carries a reported pIC50.
# TEST_DESCRIPTION: Inhibition of alpha-glucosidase (unknown origin)
# Design: species or system Homo sapiens
Schema: pIC50 number; meaning minus log10 of the concentration expressed in molar units.

>>> quantitative_result("COC(=O)c1c(C)cc(OC(=O)c2c(C)cc(O)c(/C=N/NC(=O)c3cc(I)ccc3O)c2O)c(C)c1O")
4.39

Prompt line: Supply reported pIC50 belonging to this compound: `COC(=O)c1c(C)cc(OC(=O)c2c(C)cc(O)c(/C=N/NC(=O)CNc3ccc(C)cc3)c2O)c(C)c1O`
Response line: 4.50

Prompt line: // fetch pIC50 given entry `COC(=O)c1c(C)cc(OC(=O)c2c(C)cc(O)c(/C=N/NC(=O)COc3ccc4ccccc4c3)c2O)c(C)c1O`
Response line: 4.72

====

# TEST_DESCRIPTION: Inhibition of alpha-glucosidase (unknown origin)
# Parameters: species or system Homo sapiens
pIC50: −log10 of the molar value.
Respond with Fulfilled for pIC50 values of 5 and above, Not fulfilled for values below.

Check out these entries, answers already filled in.
>>> class_assignment("COC(=O)c1c(C)cc(OC(=O)c2c(C)cc(O)c(/C=N/NC(=O)Cc3ccccc3)c2O)c(C)c1O")
"Fulfilled"
>>> class_assignment("COC(=O)c1c(C)cc(OC(=O)c2c(C)cc(O)c(/C=N/NC(=O)COc3cc4ccccc4o3)c2O)c(C)c1O")
"Not fulfilled"
>>> class_assignment("COC(=O)c1c(C)cc(OC(=O)c2c(C)cc(O)c(/C=N/NC(=O)COc3ccc(C)cc3)c2O)c(C)c1O")
"Not fulfilled"
>>> class_assignment("COC(=O)c1c(C)cc(OC(=O)c2c(C)cc(O)c(/C=N/NC(=O)COc3ccccc3C)c2O)c(C)c1O")
"Not fulfilled"

--- query ---
Prompt line: Determine whether measured pIC50 meets or exceeds 5 for C[C@H]1O[C@H](O[C@H]2[C@H](O)[C@@H](O)[C@@H](O[C@H]3[C@H](O)[C@@H](O)C(O)O[C@@H]3CO)O[C@@H]2CO)[C@H](O)[C@@H](O)[C@@H]1N[C@H]1C=C(CO)[C@@H](O)[C@H](O)[C@H]1O (some centres not stated)
Response line: Not fulfilled

====

# TEST_DESCRIPTION: Inhibition of alpha-glucosidase (unknown origin)
# Design: species or system Homo sapiens
Recorded IC50 for the following molecules
Just the number in µM, nothing appended.

Consider the reported IC50 for these molecules:
>>> quantitative_result("COC(=O)c1c(C)cc(OC(=O)c2c(C)cc(O)c(/C=N/NC(=O)COc3cc(C)ccc3C(C)C)c2O)c(C)c1O")
28.1
>>> quantitative_result("COC(=O)c1c(C)cc(OC(=O)c2c(C)cc(O)c(/C=N/NC(=O)COc3cccc(C)c3)c2O)c(C)c1O")
40.6

Now consider the entry below.
Prompt line: For the molecule `COC(=O)c1c(C)cc(OC(=O)c2c(C)cc(O)c(/C=N/NC(=O)COc3ccc(Br)cc3)c2O)c(C)c1O` , give its measured IC50 value.
Response line: 17.3
